target: WDR5 (Homo sapiens)
pIC50: −log10 of the molar value.
assay_endpoint: pIC50

INSERT INTO assay_data (compound, target_desc, experimental_result) VALUES
  ('CNc1nccn1Cc1cc(-c2cc(CO)cnc2Cl)c2ccn([C@@H](C)c3cccc(OC)c3)c(=O)c2c1 [Example 102]', 'WDR5 (Homo sapiens)', '6.00 to 8.00'),
  ('CCOc1cc(CN2CCc3c(cc(CCN(C)CC)cc3-c3ccc(F)nc3C)C2=O)ncc1C#N [Example 130]', 'WDR5 (Homo sapiens)', '> 8.00'),
  ('CCOc1cc(C(C)N2CCc3c(cc(CCN(C)CC)cc3C3=CCNCC3)C2=O)ncc1C#N (stereo not shown) [Example 159]', 'WDR5 (Homo sapiens)', '6.00 to 8.00'),
  ('CCOc1cc([C@H](C)N2CCc3c(cc(CCN(C)CC)cc3-c3cccnc3C(F)F)C2=O)ncc1C#N [Example 119]', 'WDR5 (Homo sapiens)', '> 8.00');

###

Reported pIC50 values, WDR5 (Homo sapiens).
pIC50: −log10 of the molar value.
assay_endpoint: pIC50

INSERT INTO results (compound, experimental_result) VALUES
  ('CCOc1cc([C@H](C)N2CCc3c(cc(Cn4ccnc4C)cc3-c3cc(CN(C)C)nn3C)C2=O)ncc1C#N (single isomer, unassigned)', '> 8.00'),
  ('CCOc1cc([C@H](C)N2CCc3c(cc(CCN(C)CCO)cc3-c3cn(C)c(=O)cc3Cl)C2=O)ncc1C#N', '> 8.00'),
  ('CNc1nccn1Cc1cc2c(c(-c3cc(CO)cnc3Cl)c1)CCN(Cc1ccc(F)c(OC)c1)C2=O', '6.00 to 8.00'),
  ('CCOc1cc([C@H](C)N2CCc3c(cc(Cn4ccnc4C)cc3-c3cn(C)c(=O)cc3C)C2=O)ncc1C#N', '> 8.00');

###

target: WDR5 (Homo sapiens)
pIC50: −log10 of the molar value.
// reported pIC50 per item
assay_endpoint: pIC50

INSERT INTO measurements (compound, experimental_result) VALUES
  ('CCOc1cc([C@H](C)N2CCc3c(CN(C)C)cc(Cn4ccnc4NC)cc3C2=O)cnc1C#N [Example 32]', '6.00 to 8.00'),
  ('CCOc1cc([C@H](C)N2CCc3c(cc(Cn4cnc(C)c4)cc3-c3cn(C)nc3C)C2=O)ncc1C#N [Example 276]', '> 8.00'),
  ('CCOc1cc(CN2CCc3c(cc(Cn4ccnc4C)cc3-c3cn(C)c(=O)cc3C(F)(F)F)C2=O)ncc1C#N [Example 297]', '> 8.00');

###

Reported pIC50 values, WDR5 (Homo sapiens, UniProt P61964).
pIC50: −log10 of the molar value.
assay_endpoint: pIC50

INSERT INTO assay_data (molecule, experimental_result) VALUES
  ('CCOc1cc([C@H](C)N2CCc3c(cc(CCN(C)CC)cc3-c3cc(N)cnc3C(F)(F)F)C2=O)ncc1C#N', '> 8.00'),
  ('CCOc1cc([C@H](C)N2CCc3c(CN(C)C4CC4)cc(Cn4ccnc4NC)cc3C2=O)ncc1Cl', '6.00 to 8.00'),
  ('CCOc1cc([C@H](C)N2CCc3c(cc(CCN(C)CC)cc3-c3cc(C(F)F)cnc3C)C2=O)ncc1C#N', '> 8.00'),
  ('CCOc1cc(C(C)N2CCc3c(cc(Cn4ccnc4C)cc3-c3cn(C)nc3C)C2=O)ncc1C#N (racemic)', '> 8.00'),
  ('CCOc1cc([C@H](C)N2CCc3c(cc(CCN(C)CCF)cc3-c3cc(C)ncc3C)C2=O)ncc1C#N', '6.00 to 8.00'),
  ('CCOc1cc([C@H](C)N2CCc3c(cc(Cn4ccnc4C)cc3-c3nn(C)cc3C)C2=O)ncc1C#N', '6.00 to 8.00'),
  ('CCOc1cc(CN2CCc3c(cc(CCN(C)CC)cc3-c3cc(C)ncc3F)C2=O)ncc1C#N', '6.00 to 8.00'),
  ('CNc1nccn1Cc1cc2c(c(-c3cc(CO)cnc3Cl)c1)CCN(Cc1cc(F)cc(Cl)c1)C2=O', '6.00 to 8.00'),
  ('CCOc1cc([C@@H](C)N2CCc3c(cc(CCN(C)CC)cc3-c3ccc(N)nc3C(F)(F)F)C2=O)ncc1C#N', '6.00 to 8.00'),
  ('CCOc1cc(CN2CCc3c(cc(CCN(C)CC)cc3-c3cc(C)ncc3C)C2=O)ncc1C#N', '> 8.00'),
  ('CCOc1cc([C@H](C)N2CCc3c(cc(CCN(C)CC)cc3-c3cn(C)c(=O)c(Cl)c3C)C2=O)ncc1C#N', '> 8.00');

Attribution: patent US20220289732A1
